Test: NCI Yeast Anticancer Drug Screen. Data for the rad50 strain (AID 155);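 further: 0% = growth of vehicle-only cultures of the same strain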
Settings: S. cerevisiae rad50 strain growth inhibition; at 50.0 µM (retest, dose inferred, filed as 5.0); active compounds read high
The panel holds about 79,000 compounds, 15% with a hit somewhere; the sample as a whole holds those more often. Active and inactive are the calls of the source. No stated cut-off is given here; in the data, active means growth inhibition above about 70%; inactive means the rest.
endpoint.name: growth inhibition

                                   compound  reported_value
0  CCN1CCC(O)(/C=C/c2ccccc2)C(C(=O)/C=C/c2ccccc2)C1 (stereo unspecified)    89% (active)
1  CC(=O)Oc1c2c(c(OC(C)=O)c3c1n(C(C)=O)c1ccccc1n3C(C)=O)n(C(C)=O)c1ccccc1n2C(C)=O  50% (inactive)
2  C/C(CCC1CCc2ccccc2C1)=N\NC(N)=O (stereo unspecified)  -8% (inactive)

Reported growth inhibition for Nc1cc(F)cc(F)c1[N+](=O)[O-] : what is it?
21% (inactive)

Reported growth inhibition for C=C1CC2(C[C@@H](c3ccccc3)O[C@@H](c3ccccc3)C2)OC1=O (stereo partly specified) : what is it?
97% (active)

Reported growth inhibition for NC1c2ccccc2-c2ccc([N+](=O)[O-])cc21 (stereo unspecified) : what is it?
-2% (inactive)

Reported growth inhibition for Cc1cc(C(=O)c2ccccc2)ccc1O : what is it?
33% (inactive)

Reported growth inhibition for COc1cc2c(oc(=O)c3cc(C)cc(OC)c32)c2c(C3OC(C)C(O)C(C)(O)C3O)ccc(O)c12 (stereo unspecified) : what is it?
96% (active)

Reported growth inhibition for CCOCCNCc1ccc(Cl)c(Cl)c1 : what is it?
-89% (inactive)

Reported growth inhibition for O=C(O)c1nnsc1-c1ccc(-c2snnc2C(=O)O)cc1 : what is it?
14% (inactive)

Reported growth inhibition for CC(=O)OC1C(OC(C)=O)C2C(C)CC3OC(=O)C(C)C3CC2(C)C1OC(C)=O (stereo unspecified) : what is it?
71% (active)

Reported growth inhibition for O[Si](O)(c1ccccc1)c1ccccc1 : what is it?
92% (active)

Reported growth inhibition for CCCCCCN(CCCCCC)CCC(=O)c1ccc2cc(Cl)c3ccccc3c2c1 : what is it?
90% (active)

Reported growth inhibition for Clc1ccc(C2=CC(c3ccccc3)N3C(=N[C@H]4CCCC[C@@H]43)N2)cc1 (stereo partly specified) : what is it?
6% (inactive)

Reported growth inhibition for Cc1ccc(N2CCN(c3c(N)cncc3Br)CC2)cc1 : what is it?
-4% (inactive)

Reported growth inhibition for Cc1cc(=O)n(C)c2c(C)cccc12 : what is it?
-139% (inactive)

Reported growth inhibition for Cc1cc(Nc2ccc(N=Nc3ccc(O)c4ncccc34)cc2)nc(C)n1 : what is it?
31% (inactive)

====

Experiment: NCI Yeast Anticancer Drug Screen. Data for the bub3 strain (AID 167)
Settings: S. cerevisiae bub3 mutant strain, at 5.0 µM (retest, dose inferred, filed as 0.5), active compounds read high
Protocol: Growth inhibition of yeast strains with defined genetic alterations is measured as a screen for potential anti-cancer activity. Selected strains with alterations in DNA damage repair or cell cycle control were exposed to compounds and growth inhibition was measured relative to vehicle treated controls. The strain used in this assay is bub3
About 79,000 compounds went through this panel and 15% of them were active in at least one assay; those are over-represented in the sample as a whole.
Label NOT MET if growth inhibition falls below 10%; label MET in every other case.

Consider the worked cases shown below.
>>> print(df.to_string())
                                   molecule      cat
0          CCCCCCCCCc1cc(O)c(O)cc1CCCCCCCCC  NOT MET
1             CC(C)C(=O)/C=C/c1ccc(Cl)cc1Cl  NOT MET
2  CCN(CC)CCOc1ccc(C(=C2CCCCC2)c2ccc(OCCN(CC)CC)cc2)cc1      MET

Kindly determine if growth inhibition recorded for O=C(c1ccccc1)C(Br)C(Br)c1ccc(Cl)c(Cl)c1 (stereo not drawn) is above or exactly 10%.
MET

Kindly determine if growth inhibition recorded for O=[N+]([O-])c1ccc(SCc2ccccc2)c2nonc12 is above or exactly 10%.
MET

Kindly determine if growth inhibition recorded for O=c1nc(NC(c2ccccc2)(c2ccccc2)c2ccccc2)ccn1CCNCCn1ccc(NC(c2ccccc2)(c2ccccc2)c2ccccc2)nc1=O is above or exactly 10%.
MET

Kindly determine if growth inhibition recorded for Cc1cc(Cl)n2c(nc3ccccc32)c1C#N is above or exactly 10%.
MET

Kindly determine if growth inhibition recorded for CC1(C)COC(C)(C(=O)O)OC1 is above or exactly 10%.
NOT MET

Kindly determine if growth inhibition recorded for O=NNc1ncc(Sc2ccccc2)nc1Sc1ccccc1 is above or exactly 10%.
NOT MET

Kindly determine if growth inhibition recorded for CCOC(=O)C(C(=O)OCC)C(=O)c1ccc2c(c1)OCO2 is above or exactly 10%.
NOT MET

Kindly determine if growth inhibition recorded for O=C(O)CC1c2ccc3ccccc3c2CCC1c1ccccc1 (stereo not drawn) is above or exactly 10%.
MET

Kindly determine if growth inhibition recorded for CCOCCOC(=O)c1cc([N+](=O)[O-])cc([N+](=O)[O-])c1 is above or exactly 10%.
NOT MET

====

Test: NCI Yeast Anticancer Drug Screen. Data for the mec2-1 strain (AID 157)
Details: S. cerevisiae mec2-1 strain, at 50.0 µM (retest, dose inferred, filed as 5.0)
This is part of a sample that, as a whole, favours compounds with a hit. Of some 79,000 tested, about 15% had one in any assay. Calls of active or inactive are those of the source. Cut-off read from the data, not from the text of the source: active = growth inhibition above about 70%; inactive = the rest.
Pick one and only one: active, inactive

Consider the worked cases shown below.
>>> print(df.to_string())
                                   molecule       cat
0  CCC(Sc1ccccc1[N+](=O)[O-])[N+](=O)[O-] (stereo not drawn)  inactive
1                      CCCC(=O)c1ccc(OC)cc1    active
2                Cc1cccc2c(CC(=O)O)c[nH]c12    active
3  COC(=O)C1=C(/C=C/C(C)=O)NC(C)=C(C(=O)OC(C)C)C1c1ccccc1Cl (stereo not drawn)    active
4               Oc1ccc(Cc2cccc(Br)c2)c(O)c1    active

Short answer needed: outcome of this test for COc1ccc2c(C)cc(N/N=C(\C)c3ccccn3)nc2c1 ?
inactive

Short answer needed: outcome of this test for O=C1C=C(c2cccc(-c3ccccc3)c2)CCC1 ?
active

Short answer needed: outcome of this test for CN(C)C1CCC2C3CCC4=CC(=O)CCC4(C)C3CCC21C (stereo not drawn) ?
inactive

====

# maps each entry to its growth inhibition
Assay: NCI Yeast Anticancer Drug Screen. Data for the bub3 strain (AID 167)
Details: S. cerevisiae bub3 mutant strain, at 50.0 µM, active compounds read high
This is part of a sample that, as a whole, favours compounds with a hit. Of some 79,000 tested, about 15% had one in any assay.
The response must be a number in % with no trailing unit.

In [3]: df
Out[3]:
                             compound  reported_value
0  O=C(O)CSc1nnc2c3ccccc3c3ccccc3c2n1            54.9

Reported growth inhibition for c1ccc(-c2n[nH]c3c4ccccc4c4ccccc4c23)cc1 : what is it?
95

Reported growth inhibition for CSC1NNC2(C(=O)N1)c1ccccc1-c1ccccc12 (stereo not given) : what is it?
91.7

Reported growth inhibition for CCNc1cc(N)[n+](CC)c2n[nH]c(/N=C/c3cc(Cl)cc(Cl)c3O)c12 : what is it?
90.3

Reported growth inhibition for CN(CCO)CCn1cnc2c1c(=O)n(C)c(=O)n2C : what is it?
-7.15

====

# maps each entry to its growth inhibition
Assay: NCI Yeast Anticancer Drug Screen. Data for the mlh1 rad18 strain (AID 175)
Conditions: S. cerevisiae mlh1 rad18 strain growth inhibition; at 50.0 µM; active compounds read high
The panel holds about 79,000 compounds, 15% with a hit somewhere; the sample as a whole holds those more often. Calls of active or inactive are those of the source. No stated cut-off is given here; in the data, active means growth inhibition above about 70%; inactive means the rest.

molecule	growth inhibition
COc1ccc(C)cc1NC(=O)ON=C1CCCCC1	90.5% (active)
Cc1[nH]nc(C(=O)N(C)C)c1N=NN(C)C	95.6% (active)
CCC[N+]1=C(/C=C/c2cc(C)c3cccnc3c2O)C(C)(C)c2ccccc21	93% (active)
CN(C)CCCCN1c2ccccc2Sc2ccc(C(=O)c3ccccc3)cc21	99.6% (active)
CC(=O)O[C@H]1CC[C@]2(C)C34OC3C[C@]3(C)[C@@H](C(C)=O)CC[C@H]3[C@]43C=C[C@@]2(C1)C1C(=O)OC(=O)C13 (stereo not given in full)	93.2% (active)

Reported growth inhibition for COc1ccc2c(C#N)cc3c(c[n+](C)c4ccccc34)c2c1 : what is it?
92% (active)

Reported growth inhibition for COc1ccc(N2C(=O)C(=O)N(c3ccccc3[N+](=O)[O-])C2=S)cc1 : what is it?
83.9% (active)

Reported growth inhibition for Cc1cc(C2C(O)C(c3cc(C)on3)C2(C)O)no1 (stereo not given) : what is it?
50.2% (inactive)

Reported growth inhibition for Nc1ccc2c(c1)[nH]c(=O)c1cc(Cl)c(Cl)cc12 : what is it?
92.9% (active)

Reported growth inhibition for CC(=O)Oc1c(Br)cc(Br)cc1Br : what is it?
0.9% (inactive)

Reported growth inhibition for CN(C)c1ccc(C(O)(Cc2cccnc2)c2ccc(N(C)C)cc2)cc1 : what is it?
54.9% (inactive)

Reported growth inhibition for C=CCOc1c(CCC)cc(CN)cc1CCC : what is it?
49.8% (inactive)
